Reported values of interaction score for individual entries
- system: T1, 4H233-AA
- T1 chain: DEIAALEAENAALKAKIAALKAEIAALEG
- procedure-text: two-hybrid library CCmax;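 note: natural log of median RNA to DNA barcode read ratio; higher means stronger binding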
- measurement-setup: mean of both orientations

DENAALKAKNAALKAEIAALEAEIAALEG [4H1985-AA] ... 0.704
DENAALEAEIAALEAKIAALKAENAALKG [4H1068-AA] ... 0.754
DKIAALEAENAALEAEIAALKAENAALEG [4H2187-AA] ... -0.428
DENAALKAENAALEAKIAALKAKIAALKG [4H1710-AA] ... 1.63

Query: Please give the documented interaction score of DENAALEAKIAALKAEIAALEAKIAALKG [4H1350-AA]
Result: 0.257

Query: Report interaction score, nothing else, for this binder: DEIAALEAEIAALKAKNAALKAEIAALEG [4H121-AA]
Result: -0.289
